Protocol text: Ratio of drug level in brain to plasma of rat at 3 mg/kg, iv after 10 mins
Type: ADME, organism-based
Design: dose 3 mg/kg, route intravenous
Measurement conditions: brain and plasma, read-out: BPR
# Kp at 10 min per entry
Answer as a number with no unit attached.

>>> reading("CS(=O)(=O)N1CC2(CCN(C(=O)Nc3ccc(-c4ccccc4)nn3)CC2)c2ccccc21")
0.42
>>> reading("CS(=O)(=O)N1CC2(CCN(C(=O)Nc3ccc(-c4cccnc4)cc3)CC2)c2ccccc21")
0.13
>>> reading("CS(=O)(=O)N1CC2(CCN(C(=O)Nc3ccc(-c4ccccc4)cc3)CC2)c2ccccc21")
1.3
>>> reading("CS(=O)(=O)N1CC2(CCN(C(=O)Nc3ccc(-c4ccccn4)cc3)CC2)c2ccccc21")
0.23
>>> reading("CS(=O)(=O)N1CC2(CCN(C(=O)Nc3ncc(-c4ccccc4)cn3)CC2)c2ccccc21")
0.14

Now consider a different molecule.
get_value(item= CS(=O)(=O)N1CC2(CCN(C(=O)Nc3ccc(-c4ccncc4)cc3)CC2)c2ccccc21 , readout=Kp at 10 min) returns 0.12
